Some compounds, each annotated with its measured Ki.
Test target: Human immunodeficiency virus type 1 protease (Human immunodeficiency virus 1, UniProt Q72874, Q7K)
Measurement notes: Inhibition of HIV1 protease Q7K mutant by FRET method
Setup conditions: read-out: Ki

- Compound: "Cc1oncc1S(=O)(=O)N(Cc1cccs1)C[C@@H](O)[C@H](Cc1ccccc1)NC(=O)/C=C/C(C)C(F)(F)F (some centres not stated)"
  Unit info: "nM"
  Ki: 13200
- Compound: "CC[C@@H](C)CN(C[C@@H](O)[C@H](Cc1ccccc1)NC(=O)c1cccc(O)c1)S(=O)(=O)c1ccc(OC)cc1"
  Unit info: "nM"
  Ki: 0.117
- Compound: "C/C(=C\\C(=O)N(C)[C@@H](Cc1ccccc1)[C@H](O)CN(Cc1cccs1)S(=O)(=O)c1cc(F)c(F)cc1F)C(F)(F)F"
  Unit info: "nM"
  Ki: 52.6
- Compound: "CC[C@H](C)CN(C[C@@H](O)[C@H](Cc1ccccc1)NC(=O)[C@@H]1CN(c2cccc(C(C)=O)c2)C(=O)O1)S(=O)(=O)c1ccc2ncsc2c1"
  Unit info: "nM"
  Ki: 0.019
- Compound: "CCC(=O)CCC(=O)N[C@@H](Cc1ccccc1)[C@H](O)CN(CC(C)C)S(=O)(=O)c1ccc(OC)cc1"
  Unit info: "nM"
  Ki: 0.24
- Compound: "CCC(=O)CCC(=O)N[C@@H](Cc1ccccc1)[C@H](O)CN(CC(C)C)S(=O)(=O)c1ccc2ncsc2c1"
  Unit info: "nM"
  Ki: 0.12
- Compound: "CC[C@@H](C)CN(C[C@@H](O)[C@H](Cc1ccccc1)NC(=O)C1(C(N)=O)CC1)S(=O)(=O)c1ccc2ncsc2c1"
  Unit info: "nM"
  Ki: 0.132

====

Test target: Human immunodeficiency virus type 1 protease (Human immunodeficiency virus 1, UniProt Q72874, Q7K)
Measurement notes: Inhibition of HIV1 protease Q7K mutant by FRET method
Setup conditions: read-out: Ki
pKi: −log10 of the molar value.

- Record smiles: "CC(C)CN(C[C@@H](O)[C@H](Cc1ccccc1)NC(=O)[C@@H](O)C(C)C)S(=O)(=O)c1ccc2ncsc2c1"
  Modifier sign: "="
  pKi: 9.54
- Record smiles: "Cc1cccc(OS(=O)(=O)N(C[C@@H](O)[C@H](Cc2ccccc2)NC(=O)C[C@H]2C=CCC2)C[C@@H](C)O)c1"
  Modifier sign: "<"
  pKi: 5.00
- Record smiles: "COc1ccc(S(=O)(=O)N(CC(C)C)C[C@@H](O)[C@H](Cc2ccccc2)NC(=O)C2(C(N)=O)CC2)cc1"
  Modifier sign: "="
  pKi: 9.76
- Record smiles: "CC(=O)/C=C/C(=O)N[C@@H](Cc1ccccc1)[C@H](O)CN(Cc1cccs1)S(=O)(=O)c1cc(F)c(F)cc1F"
  Modifier sign: "="
  pKi: 6.21
- Record smiles: "CC(=O)N[C@H](C(=O)N[C@@H](Cc1ccccc1)[C@H](O)CN(CC(C)C)S(=O)(=O)c1ccc2ncsc2c1)C(C)C"
  Modifier sign: "="
  pKi: 10.00
- Record smiles: "CCCCCN(C[C@@H](O)[C@H](Cc1ccccc1)NC(=O)c1cccc(O)c1)S(=O)(=O)c1ccc2ncsc2c1"
  Modifier sign: "="
  pKi: 9.51
- Record smiles: "CC[C@H](C)CN(C[C@@H](O)[C@H](Cc1ccccc1)NC(=O)c1cccc(F)c1C)S(=O)(=O)c1ccc2ncsc2c1"
  Modifier sign: "="
  pKi: 10.48

====

Test target: Human immunodeficiency virus type 1 protease (Human immunodeficiency virus 1, UniProt Q72874, Q7K)
Measurement notes: Inhibition of HIV1 protease Q7K mutant by FRET method
Setup conditions: read-out: Ki
pKi: −log10 of the molar value.
Readout type: pKi

- Record smiles: "Cc1cccc(C(=O)N[C@@H](Cc2ccccc2)[C@H](O)CN(C[C@H](C)O)S(=O)(=O)c2ccco2)n1"
  Modifier sign: "<"
  Observed: 5.00
- Record smiles: "CC[C@H](C)CN(C[C@@H](O)[C@H](Cc1ccccc1)NC(=O)[C@H](C)NC(C)=O)S(=O)(=O)c1ccc(OC)cc1"
  Modifier sign: "="
  Observed: 10.34
- Record smiles: "CCCCCN(C[C@@H](O)[C@H](Cc1ccccc1)NC(=O)[C@@H](O)C(C)C)S(=O)(=O)c1ccc2ncsc2c1"
  Modifier sign: "="
  Observed: 9.09
- Record smiles: "CCCCCN(C[C@@H](O)[C@H](Cc1ccccc1)NC(=O)C[C@@H](O)CC)S(=O)(=O)c1ccc(OC)cc1"
  Modifier sign: "="
  Observed: 9.07
- Record smiles: "COc1cccc(S(=O)(=O)N(Cc2cccs2)C[C@@H](O)[C@H](Cc2ccccc2)NC(=O)[C@H]2CCCC[C@@H]2C)c1"
  Modifier sign: "="
  Observed: 6.23
- Record smiles: "CCCCCN(C[C@@H](O)[C@H](Cc1ccccc1)NC(=O)C[C@@H](O)CC)S(=O)(=O)c1ccc2ncsc2c1"
  Modifier sign: "="
  Observed: 9.15
- Record smiles: "CCCCCN(C[C@@H](O)[C@H](Cc1ccccc1)NC(=O)CCC(=O)CC)S(=O)(=O)c1ccc(OC)cc1"
  Modifier sign: "="
  Observed: 8.38
- Record smiles: "CNC(=O)CCC(=O)N[C@@H](Cc1ccccc1)[C@H](O)CN(C[C@H](C)O)S(=O)(=O)c1ccco1"
  Modifier sign: "="
  Observed: 6.27

====

Test target: Human immunodeficiency virus type 1 protease (Human immunodeficiency virus 1, UniProt Q72874, Q7K)
Measurement notes: Inhibition of HIV1 protease Q7K mutant by FRET method
Setup conditions: read-out: pKi (converted)
I'd appreciate it if you marked entries 1 (yes) when Ki is lower than 0.1 nM and 0 (no) when it is not.

- Record smiles: "COc1ccc(S(=O)(=O)N(CC(C)C)C[C@@H](O)[C@H](Cc2ccccc2)Nc2cccc(F)c2C)cc1"
  Category: "1 (yes)"
- Record smiles: "CCCCCN(C[C@@H](O)[C@H](Cc1ccccc1)NC(=O)[C@@H](NC(C)=O)C(C)C)S(=O)(=O)c1ccc(OC)cc1"
  Category: "1 (yes)"
- Record smiles: "Cc1cccc(OS(=O)(=O)N(C[C@H](C)O)C[C@@H](O)[C@H](Cc2ccccc2)NC(=O)C[C@H]2C=CCC2)c1"
  Category: "0 (no)"
- Record smiles: "CCCCCN(C[C@@H](O)[C@H](Cc1ccccc1)NC(=O)c1cccc(O)c1)S(=O)(=O)c1ccc(OC)cc1"
  Category: "0 (no)"
- Record smiles: "CC[C@@H](C)CN(C[C@@H](O)[C@H](Cc1ccccc1)NC(=O)C1(C(N)=O)CC1)S(=O)(=O)c1ccc2ncsc2c1"
  Category: "0 (no)"
- Record smiles: "CC[C@@H](C)CN(C[C@@H](O)[C@H](Cc1ccccc1)NC(=O)C[C@@H](O)CC)S(=O)(=O)c1ccc(OC)cc1"
  Category: "0 (no)"
- Record smiles: "O=C(Cc1cccs1)N[C@@H](Cc1ccccc1)[C@H](O)CN(Cc1cccs1)S(=O)(=O)c1cc(F)c(F)cc1F"
  Category: "0 (no)"

Hello, the source for this data is ChEMBL document CHEMBL1143396, in case you need it.
